The reported measurements were obtained from patent US9802899B2.

# Protocol: Determination of the log P values by HPLC (formic acid method)
# Type: physicochemical
# Recorded Conditions: reversed-phase column (C 18), acidic range (pH 3.4), 55° C.
Reported Metric: log P
Lab note: write the figure by itself, no unit.

Q: Requested field: log P. Item: O=C(Nc1ccn(-c2ncccc2Cl)n1)c1ccccc1C(F)(F)F
A: 2.41

Q: Repeat with O=C(Nc1nn(-c2ccccc2Cl)cc1Br)c1ccccc1I
A: 3.12

Q: Repeat with O=C(Nc1ccn(-c2cccc(Cl)c2Cl)n1)c1ccccc1Cl
A: 3.38

Q: Repeat with O=C(Nc1ccn(-c2c(F)cccc2F)n1)c1c(C(F)(F)F)cc(F)c(F)c1F
A: 3.14

Q: Repeat with Cc1cc(C(=O)Nc2ccn(-c3c(F)cccc3F)n2)n(C)n1
A: 2.10

Q: Repeat with O=C(Nc1ccn(-c2ncc(F)cn2)n1)c1ccccc1Cl
A: 1.91

Q: Repeat with O=C(Nc1ccn(-c2c(F)cccc2F)c1)c1ccsc1I
A: 3.07

Q: Repeat with CCc1cc(NC(=O)c2ccccc2C(F)(F)F)nn1-c1ccc(F)cc1F
A: 4.15

Q: Repeat with O=C(Nc1ccn(-c2cc(F)c(F)cc2F)n1)c1ccccc1Cl
A: 3.94

Q: Repeat with O=C(Nc1nn(-c2c(F)cccc2F)cc1I)c1ccccc1C(F)(F)F
A: 2.86

Q: Repeat with O=C(Nc1ccn(-c2ncc(Cl)cc2Cl)n1)c1ccc(F)cc1C(F)(F)F
A: 2.61

Q: Repeat with O=C(Nc1ccn(-c2ncc(F)cc2F)n1)c1ccccc1OC(F)F [Compound I-1-459]
A: 2.50

Q: Repeat with CCc1cc(NC(=O)c2cccnc2C(F)(F)F)nn1-c1ccc(F)cc1F
A: 3.58

Q: Repeat with COc1ccccc1C(=O)Nc1ccn(-c2c(F)cccc2F)n1
A: 2.75

Q: Repeat with O=C(Nc1ccn(-c2c(F)cccc2F)n1)c1ccsc1I
A: 2.76

Q: Repeat with CS(=O)(=O)c1ccccc1-n1ccc(NC(=O)c2ccccc2Cl)n1
A: 1.96

Q: Repeat with Cn1nc([N+](=O)[O-])c(Cl)c1C(=O)Nc1ccn(-c2c(F)cccc2F)n1
A: 2.70

Q: Repeat with O=C(Nc1ccn(-c2ccccc2Br)n1)c1ccccc1Br
A: 2.86

Q: Repeat with COc1ccccc1C(=O)Nc1ccn(-c2ncc(F)cc2F)n1
A: 2.55

Q: Repeat with COc1ccccc1-n1ccc(NC(=O)c2ccccc2I)n1
A: 2.83

Q: Repeat with N#Cc1cn(-c2ccccc2Cl)nc1NC(=O)c1ccccc1Cl
A: 2.37

Q: Repeat with O=C(Nc1ccn(-c2cccc(Cl)c2F)n1)c1ccccc1Br
A: 3.31

Q: Repeat with Cn1ccc([N+](=O)[O-])c1C(=O)Nc1ccn(-c2ncc(F)cc2F)n1
A: 2.27

Q: Repeat with Cc1nn(C)c(C)c1C(=O)Nc1ccn(-c2ncc(F)cc2F)n1
A: 1.60

Q: Repeat with O=C(Nc1ccn(-c2cccc(F)c2F)n1)c1ccccc1C(F)(F)F [Compound I-1-65]
A: 3.13

Q: Repeat with O=C(Nc1ccn(-c2ncc(F)cc2F)n1)c1c(F)cccc1Cl
A: 2.38

Q: Repeat with O=C(Nc1ccn(-c2cc(F)ccc2F)n1)c1cccnc1C(F)(F)F
A: 2.60

Q: Repeat with O=C(Nc1ccn(-c2ncccc2C(F)(F)F)n1)c1c(F)cccc1F
A: 2.46

Q: Repeat with O=C(Nc1ccn(-c2ncc(F)cc2F)n1)c1snnc1C1CC1
A: 2.45

Q: Repeat with CCC(C)n1ncc(Cl)c1C(=O)Nc1ccn(-c2c(F)cccc2F)n1 (centres unmarked)
A: 3.58

Q: Repeat with O=C(Nc1cnn(-c2ncc(F)cc2F)n1)c1ccccc1I
A: 2.39

Q: Repeat with O=C(Nc1ccn(-c2cc(F)ccc2F)n1)c1cccnc1Cl
A: 2.28

Q: Repeat with Cc1cc(NC(=O)c2cccnc2C(F)(F)F)nn1-c1ccc(F)cc1F
A: 3.19

Q: Repeat with Cc1c([N+](=O)[O-])c(C(=O)Nc2ccn(-c3ncc(F)cc3F)n2)nn1C
A: 1.83

Q: Repeat with Nc1cc(NC(=O)c2ccccc2Br)nn1-c1ccccc1Cl
A: 1.94
